- protocol notes: Tissue distribution after single IP or PO dose
- Format: in vivo, BALB/c mice
- condition parameters: female, BALB/c, mouse, liver, ip, 10 mg/kg
measured attribute: Vd/F (L)
Give a bare numeral; the unit L is implied.

**Q:** # input molecule: CCn1c2ccccc2c2cc(-n3nncc3-c3ccccc3)ccc21 ; wanted: its Vd/F
**A:** 0.07

###

- protocol notes: Plasma pharmacokinetics after single IP or PO dose
- Format: in vivo, Balb/c mice
- condition parameters: female, BALB/c, mouse, plasma, po, 10 mg/kg
measured attribute: Tmax (min)
Give the value, in units of min, as a plain number.

**Q:** Look at this compound and give its reported Tmax. CCn1c2ccccc2c2cc(-n3nncc3-c3ccccc3)ccc21
**A:** 30

// provenance: paper PMC6843717
